- tgt: Phosphatidylinositol 4,5-bisphosphate 3-kinase catalytic subunit alpha isoform (Homo sapiens, UniProt P42336)
- Sequence (P42336 whole entry, canonical isoform): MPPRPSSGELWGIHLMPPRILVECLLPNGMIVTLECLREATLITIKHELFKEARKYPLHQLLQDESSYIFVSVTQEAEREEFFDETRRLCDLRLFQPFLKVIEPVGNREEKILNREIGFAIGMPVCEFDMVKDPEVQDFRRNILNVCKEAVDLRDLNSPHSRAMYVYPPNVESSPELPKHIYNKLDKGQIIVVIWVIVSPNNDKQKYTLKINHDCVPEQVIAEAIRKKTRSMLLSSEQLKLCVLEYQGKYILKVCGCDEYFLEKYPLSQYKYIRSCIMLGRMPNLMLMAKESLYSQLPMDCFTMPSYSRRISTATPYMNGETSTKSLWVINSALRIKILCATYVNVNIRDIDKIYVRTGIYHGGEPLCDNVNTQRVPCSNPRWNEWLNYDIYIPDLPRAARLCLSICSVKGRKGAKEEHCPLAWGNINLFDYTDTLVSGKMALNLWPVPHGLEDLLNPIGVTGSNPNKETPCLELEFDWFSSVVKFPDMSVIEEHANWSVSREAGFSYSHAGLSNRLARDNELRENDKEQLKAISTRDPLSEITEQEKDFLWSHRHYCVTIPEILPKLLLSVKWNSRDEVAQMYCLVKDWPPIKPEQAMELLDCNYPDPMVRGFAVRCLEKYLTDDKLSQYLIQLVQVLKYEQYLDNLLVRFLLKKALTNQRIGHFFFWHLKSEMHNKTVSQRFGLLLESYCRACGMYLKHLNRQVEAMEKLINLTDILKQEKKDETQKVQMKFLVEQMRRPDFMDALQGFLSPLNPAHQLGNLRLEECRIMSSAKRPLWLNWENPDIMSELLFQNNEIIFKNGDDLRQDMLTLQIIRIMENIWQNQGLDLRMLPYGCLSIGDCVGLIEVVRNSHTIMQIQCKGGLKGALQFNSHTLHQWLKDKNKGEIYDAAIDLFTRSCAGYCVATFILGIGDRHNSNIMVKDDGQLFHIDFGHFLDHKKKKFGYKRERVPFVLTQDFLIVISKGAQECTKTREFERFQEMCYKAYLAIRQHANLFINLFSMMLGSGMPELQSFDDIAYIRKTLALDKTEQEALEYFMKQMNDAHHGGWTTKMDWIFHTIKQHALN
- protocol text: Inhibition of PI3Kalpha (unknown origin) using PIP2 as substrate incubated for 1 hrs in presence of ATP by ADP-Glo kinase assay
Rule: IC50 below 0.01 µM gives rule met. Equal to or above 0.01 µM gives rule not met.

Criterion: IC50 strictly below 0.01 µM. Is it met by Nc1ccccc1NC(=O)CCCCCCNC(=O)c1ccc(NC(=O)Nc2ccc(-c3nc(OC4CCOC4)nc(N4CCOCC4)n3)cc2)cc1 (configuration not stated) ?
rule not met

For Nc1ccccc1NC(=O)CCCCCNC(=O)c1ccc(NC(=O)Nc2ccc(-c3nc(OC4CCOC4)nc(N4CCOCC4)n3)cc2)cc1 (configuration not stated) , is the recorded IC50 below the cut-off of 0.01 µM?
rule met

Is 0.01 µM strictly greater than the compound's reported IC50? compound: Nc1ccccc1NC(=O)CCCCCCNC(=O)c1ccc(NC(=O)Nc2ccc(-c3nc(N4CCOCC4)nc(N4CCOCC4)n3)cc2)cc1
rule not met

Say whether its IC50 is strictly beneath 0.01 µM. Entry: Nc1c(NC(=O)c2ccc(NC(=O)Nc3ccc(-c4nc(N5CCOCC5)nc(N5CCOCC5)n4)cc3)cc2)ccc(F)c1F
rule not met

Given CC(=O)Nc1ccc(C(=O)Nc2ccccc2N)cc1 , is recorded IC50 strictly lower than 0.01 µM?
rule not met

Record COc1nc(-c2ccc(NC(=O)Nc3ccc(C(=O)NCCCCCC(=O)Nc4ccccc4N)cc3)cc2)nc(N2CCOCC2)n1 : is its IC50 strictly below 0.01 µM?
rule not met

Is the reported IC50 for Nc1ccccc1NC(=O)CCCCCNC(=O)c1ccc(NC(=O)Nc2ccc(-c3nc(OC4COC4)nc(N4CCOCC4)n3)cc2)cc1 strictly below 0.01 µM?
rule met
